# target-or-system: reuptake of serotonine (5-HT) in synaptosomes (Rattus norvegicus, UniProt P31652)
# Construct: serotonine (5-HT) in synaptosomes as described in WO 97/16451
# Sequence (P31652 whole entry): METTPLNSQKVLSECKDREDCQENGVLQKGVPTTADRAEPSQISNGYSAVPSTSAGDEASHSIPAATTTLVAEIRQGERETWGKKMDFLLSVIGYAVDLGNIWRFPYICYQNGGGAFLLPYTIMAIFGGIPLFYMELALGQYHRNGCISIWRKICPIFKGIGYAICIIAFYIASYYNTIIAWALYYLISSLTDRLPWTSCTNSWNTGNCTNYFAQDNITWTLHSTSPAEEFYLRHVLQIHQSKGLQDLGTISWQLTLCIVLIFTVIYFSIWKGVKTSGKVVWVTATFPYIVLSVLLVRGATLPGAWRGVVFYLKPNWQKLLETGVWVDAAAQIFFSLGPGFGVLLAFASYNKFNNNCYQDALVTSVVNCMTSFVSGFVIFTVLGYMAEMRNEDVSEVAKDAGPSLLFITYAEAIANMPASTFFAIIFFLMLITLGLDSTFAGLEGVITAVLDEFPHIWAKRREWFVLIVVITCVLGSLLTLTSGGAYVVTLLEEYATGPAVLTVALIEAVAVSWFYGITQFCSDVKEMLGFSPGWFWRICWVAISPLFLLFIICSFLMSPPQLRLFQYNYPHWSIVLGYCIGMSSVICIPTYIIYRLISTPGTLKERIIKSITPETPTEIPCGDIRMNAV
# test-description: Inhibition of 5-HT reuptake in synaptosomes
Recorded measurements of IC50, one per entry

CN1[C@@H]2CCC[C@H]1C[C@H](Oc1ccc3ccc(=O)oc3c1)C2 | 2.9 nM

Please turn your attention to the following entry.
What IC50 value was documented for this compound, "O=c1ccc2ccc(O[C@@H]3C[C@H]4CCC[C@@H](C3)N4)cc2o1" ?
1.3 nM

---

# target-or-system: reuptake of noradrenaline (NA) in synaptosomes (Rattus norvegicus, UniProt Q63380)
# Construct: in synaptosomes as described in WO 97/16451; from tissue
# Sequence (Q63380 1-617): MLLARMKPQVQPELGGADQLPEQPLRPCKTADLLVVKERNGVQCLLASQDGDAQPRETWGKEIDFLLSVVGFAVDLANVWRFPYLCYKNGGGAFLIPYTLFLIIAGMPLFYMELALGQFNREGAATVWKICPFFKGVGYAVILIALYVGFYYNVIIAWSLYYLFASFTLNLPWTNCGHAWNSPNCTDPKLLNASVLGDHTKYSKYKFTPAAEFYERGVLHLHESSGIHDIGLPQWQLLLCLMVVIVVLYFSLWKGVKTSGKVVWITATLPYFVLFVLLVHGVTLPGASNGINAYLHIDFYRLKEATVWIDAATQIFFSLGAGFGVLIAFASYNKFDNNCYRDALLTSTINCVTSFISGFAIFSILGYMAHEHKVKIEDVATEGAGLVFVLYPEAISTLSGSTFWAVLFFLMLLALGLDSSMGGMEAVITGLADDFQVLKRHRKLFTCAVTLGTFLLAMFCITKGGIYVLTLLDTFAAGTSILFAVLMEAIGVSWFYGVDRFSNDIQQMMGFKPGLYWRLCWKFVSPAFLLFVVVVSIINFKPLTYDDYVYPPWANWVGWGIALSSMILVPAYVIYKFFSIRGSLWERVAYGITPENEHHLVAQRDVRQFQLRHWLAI
# test-description: Inhibition of NA reuptake in synaptosomes
# Assay type: biochemical
# From the text: Compounds of the invention may be tested for their ability to inhibit reuptake of the monoamines dopamine, noradrenaline and serotonin in synaptosomes e.g. such as described in WO 97/30997 (NeuroSearch NS) or WO 97/16451 (NeuroSearch A/S). […]
measure-name: pIC50
The quantity pIC50 is defined as the negative base-10 logarithm of the molar concentration.

What pIC50 value was documented for this compound, O=c1ccc2ccc(O[C@@H]3C[C@H]4CCC[C@@H](C3)N4)cc2o1 [Compound A1] ?
7.12
